ASSAY METHOD TEXT: Biovailability in mouse at 3 to 10 mg/kg, iv
Type: ADME, organism-based
RECORDED CONDITIONS: in vivo, dose 3-10 mg/kg
RECORDED ENDPOINT: bioavailability (%)
Write the answer as a number in %, unit excluded.

Input line: Look up bioavailability: CC#CCn1c(N2CCC[C@@H](N)C2)cc(=O)n(Cc2ccc(Cl)c(C(=O)N(C)C)c2)c1=O
Output line: 27.3
